# Tested on: Kappa-type opioid receptor (Rattus norvegicus, UniProt P34975)
# Sequence (P34975 whole entry): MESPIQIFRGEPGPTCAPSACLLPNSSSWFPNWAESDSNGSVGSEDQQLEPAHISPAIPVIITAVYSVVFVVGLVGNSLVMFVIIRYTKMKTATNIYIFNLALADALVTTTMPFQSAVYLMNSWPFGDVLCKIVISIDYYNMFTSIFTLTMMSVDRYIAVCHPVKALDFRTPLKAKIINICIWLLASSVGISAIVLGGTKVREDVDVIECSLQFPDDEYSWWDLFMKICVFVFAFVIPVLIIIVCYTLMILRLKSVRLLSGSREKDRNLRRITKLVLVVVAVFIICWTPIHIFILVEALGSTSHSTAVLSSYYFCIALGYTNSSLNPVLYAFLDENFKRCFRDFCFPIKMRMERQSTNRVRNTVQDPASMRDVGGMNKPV
pKi: −log10 of the molar value.
Value type: pKi

> print(dat)
                                item.smiles                                 tested.on  value.reported
1  COc1ccc2c(c1OC)[C@]13CCN(C)[C@H](C2)[C@]1(O)CCC(=O)C3  Kappa-type opioid receptor (Rattus norvegicus, UniProt P34975)            6.16
2  COc1ccc2c(c1O)[C@]13CCN(C)[C@H](C2)[C@]1(O)CCC(=O)C3  Kappa-type opioid receptor (Rattus norvegicus, UniProt P34975)            6.12
3  COc1ccc2c(c1O)[C@@]13C=C(C#N)CC[C@@]1(O)[C@@H](C2)N(C)CC3  Kappa-type opioid receptor (Rattus norvegicus, UniProt P34975)            5.78
4  COc1ccc2c(c1O)[C@@]13C=C(C#N)CC[C@@]1(OC)[C@@H](C2)N(C)CC3  Kappa-type opioid receptor (Rattus norvegicus, UniProt P34975)            6.42
5  COc1ccc2c(c1O)[C@]13CCN(C)[C@H](C2)[C@]1(OC)CCC(=O)C3  Kappa-type opioid receptor (Rattus norvegicus, UniProt P34975)            6.23
6  COc1ccc2c(c1OC)[C@@]13C=C(C#N)CC[C@@]1(O)[C@@H](C2)N(C)CC3  Kappa-type opioid receptor (Rattus norvegicus, UniProt P34975)            6.44

----------
# Tested on: Delta-type opioid receptor (Rattus norvegicus)
# Sequence (P33533 whole entry): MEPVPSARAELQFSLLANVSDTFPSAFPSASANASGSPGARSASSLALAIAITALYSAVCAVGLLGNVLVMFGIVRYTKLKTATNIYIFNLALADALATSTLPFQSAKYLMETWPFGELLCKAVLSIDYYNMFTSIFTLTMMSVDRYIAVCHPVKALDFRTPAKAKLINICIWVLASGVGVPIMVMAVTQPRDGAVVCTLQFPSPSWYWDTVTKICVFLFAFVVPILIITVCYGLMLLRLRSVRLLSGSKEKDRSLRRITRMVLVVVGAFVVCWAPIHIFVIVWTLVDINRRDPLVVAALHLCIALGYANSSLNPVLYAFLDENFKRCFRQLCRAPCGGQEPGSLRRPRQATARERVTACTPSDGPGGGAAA
# Protocol text: Displacement of [3H]Ile5,6]-deltorphin II from delta opioid receptor of rat brain membranes
pKi: −log10 of the molar value.
Quick reference: pKi of the listed items.
Value type: pKi

> print(dat)
                                item.smiles                                 tested.on  value.reported
1  COc1ccc2c(c1O)[C@@]13C=C(C#N)CC[C@@]1(O)[C@@H](C2)N(C)CC3  Delta-type opioid receptor (Rattus norvegicus)            6.30
2  COc1ccc2c(c1O)[C@@]13C=C(C#N)CC[C@@]1(OC)[C@@H](C2)N(C)CC3  Delta-type opioid receptor (Rattus norvegicus)            6.71
3  COc1ccc2c(c1OC)[C@]13CCN(C)[C@H](C2)[C@]1(O)CCC(=O)C3  Delta-type opioid receptor (Rattus norvegicus)            7.04
4  COc1ccc2c(c1O)[C@]13CCN(C)[C@H](C2)[C@]1(OC)CCC(=O)C3  Delta-type opioid receptor (Rattus norvegicus)            6.74
5  COc1ccc2c(c1O)[C@]13CCN(C)[C@H](C2)[C@]1(O)CCC(=O)C3  Delta-type opioid receptor (Rattus norvegicus)            6.06
6  COc1ccc2c(c1OC)[C@@]13C=C(C#N)CC[C@@]1(O)[C@@H](C2)N(C)CC3  Delta-type opioid receptor (Rattus norvegicus)            6.97
